assay: Selectivity index, ratio of CC50 for human MT4 cells to EC50 for HIV1 RES056 reverse transcriptase K103N/Y181C double mutant infected in human MT4 cells; conditions: MT4 cells
assayMetric: selectivity ratio

{"molecule": "Cc1cc(/C=C/C#N)cc(C)c1Oc1nc(NC2CCN(Cc3cccc(Br)c3)CC2)nc2ccsc12", "assayMetric": "selectivity ratio", "censoringSign": "=", "testValue": 37}
{"molecule": "Cc1cc(/C=C/C#N)cc(C)c1Oc1nc(NC2CCN(Cc3ccccc3Br)CC2)nc2ccsc12", "assayMetric": "selectivity ratio", "censoringSign": "=", "testValue": 16}
{"molecule": "CCOC(=O)c1ccc(CN2CCC(Nc3nc(Oc4c(C)cc(C#N)cc4C)c4ccsc4n3)CC2)cc1", "assayMetric": "selectivity ratio", "censoringSign": ">", "testValue": 6}
{"molecule": "Cc1cc(/C=C/C#N)cc(C)c1Oc1nc(NC2CCN(Cc3ccccc3F)CC2)nc2ccsc12", "assayMetric": "selectivity ratio", "censoringSign": "=", "testValue": 14}
{"molecule": "Cc1cc(C#N)cc(C)c1Oc1nc(NC2CCN(Cc3ccc(C(N)=O)cc3)CC2)nc2sccc12", "assayMetric": "selectivity ratio", "censoringSign": "=", "testValue": 3}
{"molecule": "Cc1cc(/C=C/C#N)cc(C)c1Oc1nc(NC2CCN(Cc3ccccn3)CC2)nc2ccsc12", "assayMetric": "selectivity ratio", "censoringSign": "=", "testValue": 32}
{"molecule": "Cc1cc(C#N)cc(C)c1Oc1nc(NC2CCN(Cc3ccc(S(N)(=O)=O)cc3)CC2)nc2sccc12", "assayMetric": "selectivity ratio", "censoringSign": "=", "testValue": 625}
{"molecule": "Cc1cc(C#N)cc(C)c1Oc1nc(NC2CCC(NCc3ccc(F)cc3)CC2)nc2ccsc12 (centres undefined)", "assayMetric": "selectivity ratio", "censoringSign": "<", "testValue": 1}
{"molecule": "Cc1cc(C#N)cc(C)c1Oc1nc(NC2CCN(Cc3ccc(S(N)(=O)=O)cc3)CC2F)nc2ccsc12 (centres undefined)", "assayMetric": "selectivity ratio", "censoringSign": "=", "testValue": 138}

----------
experiment: Fold resistance, ratio of EC50 for reverse transcriptase E138K mutant in human MT4 cells infected HIV1 3B to EC50 for wild type HIV1 3B harboring reverse transcriptase infected in human MT4 cells; type: functional
# Ratio EC50 annotations

{"molecule": "Cc1cc(C#N)cc(C)c1Oc1nc(NC2CCC(NCc3ccc(S(C)(=O)=O)cc3)CC2)nc2ccsc12 (centres undefined)", "Ratio EC50": 2.4}
{"molecule": "Cc1cc(C#N)cc(C)c1Oc1nc(NC2CCC(NCc3ccc([N+](=O)[O-])cc3)CC2)nc2ccsc12 (centres undefined)", "Ratio EC50": 1.6}

----------
assay: Selectivity index, ratio of CC50 for human MT4 cells to EC50 for reverse transcriptase K103N mutant in human MT4 cells infected HIV1 3B; conditions: MT4 cells
Mark Satisfied only when selectivity ratio stays strictly below 300. Values equal to the cut-off are Not satisfied.

{"compound": "Cc1cc(C#N)cc(C)c1Oc1nc(NC2CCN(Cc3ccc(S(N)(=O)=O)cc3)CC2)nc2ccsc12", "qualitativeLabel": "Not satisfied"}
{"compound": "Cc1ccc(CN2CCC(Nc3nc(Oc4c(C)cc(/C=C/C#N)cc4C)c4sccc4n3)CC2)cc1", "qualitativeLabel": "Satisfied"}
{"compound": "Cc1cc(C#N)cc(C)c1Oc1nc(NC2CCN(Cc3ccc(S(C)(=O)=O)cc3)CC2)nc2sccc12", "qualitativeLabel": "Not satisfied"}
{"compound": "Cc1cc(C#N)cc(C)c1Oc1nc(NC2CCC(NCc3ccccc3)CC2)nc2ccsc12 (centres undefined)", "qualitativeLabel": "Satisfied"}
{"compound": "Cc1cc(/C=C/C#N)cc(C)c1Oc1nc(NC2CCN(Cc3ccccc3C#N)CC2)nc2ccsc12", "qualitativeLabel": "Satisfied"}
{"compound": "Cc1cc(C#N)cc(C)c1Oc1nc(NC2CCC(NCc3ccc([N+](=O)[O-])cc3)CC2)nc2ccsc12 (centres undefined)", "qualitativeLabel": "Satisfied"}
{"compound": "Cc1cc(/C=C/C#N)cc(C)c1Oc1nc(NC2CCN(Cc3cccc(C(N)=O)c3)CC2)nc2ccsc12", "qualitativeLabel": "Not satisfied"}
{"compound": "Cc1cc(/C=C/C#N)cc(C)c1Oc1nc(NC2CCN(Cc3ccccc3Cl)CC2)nc2ccsc12", "qualitativeLabel": "Satisfied"}
{"compound": "Cc1cc(/C=C/C#N)cc(C)c1Oc1nc(NC2CCN(Cc3ccc(C#N)cc3)CC2)nc2ccsc12", "qualitativeLabel": "Not satisfied"}

----------
assay: Apparent half life in Sprague-Dawley rat at 24 mg/kg, po by LC-MS analysis; assay type: ADME, organism-based; conditions: in vivo, read-out: t1/2(app) (converted)

{"chemicalStructure": "Cc1cc(/C=C/C#N)cc(C)c1Oc1nc(NC2CCN(Cc3ccc(S(N)(=O)=O)cc3)CC2)nc2ccsc12", "half-life, min": 236}

----------
assay: Selectivity index, ratio of CC50 for human MT4 cells to EC50 for reverse transcriptase K103N mutant in human MT4 cells infected HIV1 3B; details: MT4 cells
assayMetric: selectivity ratio

{"compound": "Cc1cc(/C=C/C#N)cc(C)c1Oc1nc(NC2CCN(Cc3ccncc3)CC2)nc2ccsc12", "assayMetric": "selectivity ratio", "censoringSign": "=", "testValue": 859}
{"compound": "Cc1cc(/C=C/C#N)cc(C)c1Oc1nc(NC2CCN(Cc3cccc(C#N)c3)CC2)nc2ccsc12", "assayMetric": "selectivity ratio", "censoringSign": "=", "testValue": 470}
{"compound": "Cc1cc(C#N)cc(C)c1Oc1nc(NC2CCN(Cc3ccc(C(N)=O)cc3)CC2)nc2sccc12", "assayMetric": "selectivity ratio", "censoringSign": "=", "testValue": 11}
{"compound": "Cc1cc(C#N)cc(C)c1Oc1nc(NC2CCC(NCc3cccc(C(F)(F)F)c3)CC2)nc2ccsc12 (stereo not given)", "assayMetric": "selectivity ratio", "censoringSign": "<", "testValue": 1}
{"compound": "CCOC(=O)c1ccc(CN2CCC(Nc3nc(Oc4c(C)cc(C#N)cc4C)c4ccsc4n3)CC2)cc1", "assayMetric": "selectivity ratio", "censoringSign": ">", "testValue": 625}

----------
assay: MRT(0 to infinity) in Sprague-Dawley rat at 2 mg/kg, iv by LC-MS analysis; format: ADME, organism-based; details: in vivo
assayMetric: MRT inf (h)

{"chemicalStructure": "Cc1cc(/C=C/C#N)cc(C)c1Oc1nc(NC2CCN(Cc3ccc(S(N)(=O)=O)cc3)CC2)nc2ccsc12", "unitAbbreviation": "h", "testValue": 1.69}

----------
test: Selectivity index, ratio of CC50 for human MT4 cells to EC50 for HIV1 RES056 reverse transcriptase K103N/Y181C double mutant infected in human MT4 cells; settings: MT4 cells
Items are presented alongside their recorded selectivity ratio.
assayMetric: selectivity ratio

{"molecule": "Cc1cc(/C=C/C#N)cc(C)c1Oc1nc(NC2CCN(Cc3ccccc3Cl)CC2)nc2ccsc12", "testValue": 30}
{"molecule": "Cc1cc(C#N)cc(C)c1Oc1nc(NC2CCC(NCc3cccc(C(F)(F)F)c3)CC2)nc2ccsc12 (centres undefined)", "testValue": "< 1"}
{"molecule": "CCOC(=O)c1ccc(CN2CCC(Nc3nc(Oc4c(C)cc(/C=C/C#N)cc4C)c4sccc4n3)CC2)cc1", "testValue": "≥ 22"}
{"molecule": "Cc1cc(/C=C/C#N)cc(C)c1Oc1nc(NC2CCN(Cc3cccc(Cl)c3)CC2)nc2ccsc12", "testValue": 33}
{"molecule": "Cc1cc(C#N)cc(C)c1Oc1nc(NC2CCC(NCc3ccc(C#N)cc3)CC2)nc2ccsc12 (centres undefined)", "testValue": "< 1"}
{"molecule": "Cc1cc(C#N)cc(C)c1Oc1nc(NC2CCC(NCc3ccc(O)cc3)CC2)nc2ccsc12 (centres undefined)", "testValue": "< 1"}
{"molecule": "Cc1cc(/C=C/C#N)cc(C)c1Oc1nc(NC2CCN(Cc3cccc(C#N)c3)CC2)nc2ccsc12", "testValue": 24}
{"molecule": "Cc1cc(C#N)cc(C)c1Oc1nc(NC2CCC(NCc3ccc([N+](=O)[O-])cc3)CC2)nc2ccsc12 (centres undefined)", "testValue": "< 1"}
{"molecule": "Cc1cc(C#N)cc(C)c1Oc1nc(NC2CCN(Cc3cccc(C(N)=O)c3)CC2)nc2sccc12", "testValue": "> 10"}

----------
test: Selectivity index, ratio of CC50 for human MT4 cells to EC50 for reverse transcriptase Y181C mutant in human MT4 cells infected HIV1 3B
Listing of entries alongside the reported selectivity ratio.
assayMetric: selectivity ratio

{"chemicalStructure": "Cc1cc(C#N)cc(C)c1Oc1nc(Nc2ccc(C#N)cc2)nc(N)c1Br", "testValue": "> 291"}
{"chemicalStructure": "Cc1cn([C@H]2C[C@H](N=[N+]=[N-])[C@@H](CO)O2)c(=O)[nH]c1=O", "testValue": "> 1120"}
